tested on: HT-1080; experiment: Cytotoxicity against human HT-1080 cells assessed as reduction in cell viability at 50 uM measured for 48 hrs by CCK-8 assay; assay type: functional, cell-based
Activity calls are given as the source filed them. The calls are words filed in the database; no cut-off is given here.
value-kind: Activity

Solved entries:
compound: Cc1cccc(O)c1-c1cc(O)c(C)c(=O)o1
Activity: inactive
--
compound: C[C@]1(c2ccc(C(=O)O)cc2O)CC[C@H](O)[C@](C)(CO)O1 (relative stereo)
Activity: inactive
--
compound: CC1(C)O[C@@](C)(c2ccc(C(=O)O)cc2O)[C@H](O)C[C@@H]1O (relative stereo)
Activity: inactive
--
compound: CC(CCCC(C)(O)c1ccc(C(=O)O)cc1O)C(=O)O (configuration not stated)
Activity: inactive
--
compound: CC(=O)OCC(C)(O)CCCC(C)(O)c1ccc(C(=O)O)cc1O (configuration not stated)
Activity: inactive

stdin: Query: Activity; subject: CC(O)(CO)CCCC(C)(O)c1ccc(C(=O)O)cc1O (configuration not stated)
stdout: inactive

stdin: Note, next up: CC1(C)O[C@@](C)(c2ccc(C(=O)O)cc2O)C[C@H](O)[C@H]1O (relative stereo)
stdout: inactive

stdin: Note, next up: C/C(=C\CCC(C)(O)CO)c1ccc(C(=O)O)cc1O (configuration not stated)
stdout: inactive

stdin: Note, next up: C[C@]1(CO)CCC[C@](C)(c2ccc(C(=O)O)cc2O)O1
stdout: inactive

stdin: Note, next up: C/C(=C/CCC(C)(C)O)c1ccc(C(=O)O)cc1O
stdout: inactive

stdin: Note, next up: CC(=O)OC[C@@]1(C)CCC[C@@](C)(c2ccc(C(=O)O)cc2O)O1
stdout: inactive

----------
tested on: HT-1080; assay: Anti-ferroptotic activity against RSL3-induced ferroptosis in human HT-1080 cells assessed as cell viability pretreated for 0.5 hrs followed by RSL3 stimulation by Cell-titer-glo assay; format: functional, cell-based
value-kind: pEC50
# pEC50 is unitless: minus log10 of the molar concentration; print number only

stdin: Query: pEC50; subject: C/C(=C\CCC(C)(O)CO)c1ccc(C(=O)O)cc1O (stereo unspecified)
stdout: 5.68

----------
tested on: HT-1080; test: Cytotoxicity against human HT-1080 cells assessed as reduction in cell viability at 50 uM measured for 48 hrs by CCK-8 assay; type: functional, cell-based
Activity calls are given as the source filed them. The calls are words filed in the database; no cut-off is given here.
value-kind: Activity

compound: CC(=O)OC[C@@]1(C)CCC[C@](C)(c2ccc(C(=O)O)cc2O)O1 (relative stereo)
Activity: inactive

compound: C[C@@]1(CO)CCC[C@](C)(c2ccc(C(=O)O)cc2O)O1 (relative stereo)
Activity: inactive

compound: CC1(C)O[C@@](C)(c2ccc(C(=O)O)cc2O)C[C@H](O)[C@@H]1O (relative stereo)
Activity: inactive

compound: CC1(C)CCC[C@](C)(c2ccc(C(=O)O)cc2O)O1
Activity: inactive

compound: CC1(c2ccc(C(=O)O)cc2O)CCC(=O)O1 (stereo unspecified)
Activity: inactive

stdin: Query: Activity; subject: CC(C)(O)CCCC(C)(O)c1ccc(C(=O)O)cc1O (stereo unspecified)
stdout: inactive
